tested on: SK-MEL-28 melanoma; assay: NCI tumour cell line growth inhibition, 48 h
Please provide measured TGI for the entries that follow.

[ask] Could you share which TGI value was measured for `COC(=O)C(=Cc1cc(OC)ccc1OC)C(=O)OC` ?
[reply] 82.9 µM

[ask] Could you share which TGI value was measured for COC(=O)C1=C(C)NC2=C(C(=O)c3ccccc32)C1c1cn(-c2ccccc2)nc1-c1ccccc1 (stereo not given) ?
[reply] > 100 µM

[ask] Could you share which TGI value was measured for `COc1cc(OC)c(-c2ccc(OCc3ccccc3)c3c(OC)cc(C)cc23)c2c1C(C)=N[C@H](C)C2` ?
[reply] 4.38 µM

[ask] Could you share which TGI value was measured for Cc1cc(CC(O)c2ccc(Cl)c(Cl)c2)nc(=O)[nH]1 (stereo not given) ?
[reply] > 100 µM

[ask] Could you share which TGI value was measured for CC(C)(Br)C(Br)CCC1(C2CO2)CO1 (stereo not given) ?
[reply] > 5 µM

[ask] Could you share which TGI value was measured for `O=C(CCn1[nH]c(=O)c(Cl)c(Cl)c1=O)NO` ?
[reply] > 100 µM

[ask] Could you share which TGI value was measured for `Cc1nn(-c2ccccc2)c2nc(N3CCOCC3)nnc12` ?
[reply] > 100 µM

[ask] Could you share which TGI value was measured for `C1C2CC3CC1CC(Nc1nc(NC45CC6CC(CC(C6)C4)C5)nc(NC45CC6CC(CC(C6)C4)C5)n1)(C2)C3` ?
[reply] > 93.2 µM

[ask] Could you share which TGI value was measured for `Cn1c2ccccc2c2c3c(c4c5cc(Br)ccc5n(C)c4c21)C(=O)N(O)C3=O` ?
[reply] > 100 µM

[ask] Could you share which TGI value was measured for `Cc1cc2c(cc1Cl)SC(NS(=O)(=O)c1ccc(Cl)cc1)=NS2(=O)=O` ?
[reply] > 100 µM

---

test system: HT29 colon; test: NCI tumour cell line growth inhibition, 48 h
Please provide measured TGI for the entries that follow.

[ask] Could you share which TGI value was measured for `O=Cc1cn(CCCCCCCCCCCCn2cc(C=O)c3ccccc32)c2ccccc12` ?
[reply] > 100 µM

[ask] Could you share which TGI value was measured for COc1ccc(C(C)=O)cc1N1C(=O)C2C(C1=O)C1(c3ccccc3)C(=O)C2(c2ccccc2)C(c2ccc(C)cc2)=C1c1ccc(C)cc1 (stereo not drawn) ?
[reply] > 100 µM

[ask] Could you share which TGI value was measured for COC(=O)CC(C#N)(OP1(=O)OC(c2ccccc2)C(C)N1C)c1ccccc1 (stereo not drawn) ?
[reply] 53.2 µM

---

tested on: SF-539 CNS; experiment: NCI tumour cell line growth inhibition, 48 h
Please provide measured TGI for the entries that follow.

[ask] Could you share which TGI value was measured for `[Cl][Hg][c]1cc(Br)cc(Br)c1` ?
[reply] 3.31 µM

[ask] Could you share which TGI value was measured for `Cc1cc(I)cc(CN(C)CCCN2CCCCCCC2)c1O` ?
[reply] 29.2 µM

[ask] Could you share which TGI value was measured for `N=C1/C(=C/c2ccc(F)cc2)C(=O)N=C2SC=NN12` ?
[reply] > 100 µM

[ask] Could you share which TGI value was measured for `Nc1ccc(-c2nc3cc(F)ccc3s2)cc1Cl` ?
[reply] 45.1 µM

[ask] Could you share which TGI value was measured for `O=C(CNc1ccc(Cl)cc1)Nc1ccc(-c2nc3ccccc3s2)cc1` ?
[reply] 9.79 µM

[ask] Could you share which TGI value was measured for `C=C(CNCc1ccccc1)c1ccc(C(=O)Nc2ccccc2N)cc1` ?
[reply] 55.2 µM

[ask] Could you share which TGI value was measured for `CCCn1c2ccccc2c2ccc3c(c21)C(=O)C=CC3=O` ?
[reply] > 6.41 µM

[ask] Could you share which TGI value was measured for `CCN(CC)CCOc1ccc(-c2nc3cc(Cl)ccc3s2)cc1` ?
[reply] 2.94 µM

[ask] Could you share which TGI value was measured for `CCOC(=O)CCCn1c(SC)nc2[nH]cc(-c3ccccc3)c2c1=O` ?
[reply] 46.1 µM

[ask] Could you share which TGI value was measured for `COc1ccc(/C=C(/C(=O)N2CCN(c3ccccc3)CC2)c2cc(OC)c(OC)c(OC)c2)cc1O` ?
[reply] 0.708 µM

[ask] Could you share which TGI value was measured for O=C(NCC(=O)N1CCCC1C(=O)OC(=O)C1CCCN1C(=O)CNC(=O)OCc1ccccc1)OCc1ccccc1 (stereo not drawn) ?
[reply] 40.6 µM

[ask] Could you share which TGI value was measured for `N#Cc1c(-c2ccc(Cl)cc2)c2c([nH]c1=O)-c1ccccc1SC2` ?
[reply] 68 µM

[ask] Could you share which TGI value was measured for `O=c1cnn(C/C=C/CBr)c(=O)[nH]1` ?
[reply] 31.6 µM

[ask] Could you share which TGI value was measured for O=c1[nH]c(=O)n(C2OC(CO)C(O)C2O)cc1NN=NCc1ccccc1 (stereo not drawn) ?
[reply] > 100 µM

[ask] Could you share which TGI value was measured for `Cc1cc(C)nc(NC(=O)c2ccc(Br)s2)c1` ?
[reply] > 100 µM

[ask] Could you share which TGI value was measured for `Cn1cc(CO)c2c1C(=O)C=C(N1CC1)C2=O` ?
[reply] < 0.01 µM

[ask] Could you share which TGI value was measured for `CN(C)c1nc2ccccc2[nH]1` ?
[reply] > 100 µM

[ask] Could you share which TGI value was measured for CC(C)(C)[Si](OC1CC(n2cnc3c(N)ncnc32)OC1CO)(c1ccccc1)c1ccccc1 (stereo not drawn) ?
[reply] 36.7 µM

[ask] Could you share which TGI value was measured for CCN1CCN(C(c2ccc(C(F)(F)F)cc2)c2ccc3cccnc3c2O)CC1 (stereo not drawn) ?
[reply] 10.1 µM

[ask] Could you share which TGI value was measured for `CN1CCN(C(=O)CCNC(=O)Cc2ccc(C(=O)c3ccccc3)cc2)CC1` ?
[reply] > 100 µM

[ask] Could you share which TGI value was measured for `Nc1c2c(nc3cc(F)c(F)cc13)CCC2` ?
[reply] > 100 µM

[ask] Could you share which TGI value was measured for O/N=C/C1C(OCc2ccccc2)C(OCc2ccccc2)C(OCc2ccccc2)CN1Cc1ccccc1 (stereo not drawn) ?
[reply] > 100 µM

[ask] Could you share which TGI value was measured for `O=C(O)c1ccc(Nc2c3ccccc3nc3ccccc23)cc1` ?
[reply] > 100 µM

This collection of values is drawn from PubChem BioAssay (NCI).
